What pIC50 was measured for each of the following?
- Tested on: A549 lung carcinoma cells
- procedure-summary: Cell growth inhibition by cell counting (Coulter Counter), A549
- Format: cell-based, human
- measurement-parameters: weaker enzyme inhibitors; read-out: concentrations which arrested growth
pIC50: −log10 of the molar value.

Form field: pIC50 recorded for `CCCCCCCCCCCCC/C=C/[C@@H](O)[C@H](CO)[N+](C)(C)C` with A549 lung carcinoma cells (enter value) < 6.00

Provide the documented pIC50 with A549 lung carcinoma cells as the system for CCCCCCCCCCCCC(=O)N1CCCCC1CNC(=O)C(N)CCCCN (centres unmarked) < 6.00

---

- System: A549 lung carcinoma cells
- procedure-summary: Cell growth inhibition by cell counting (Coulter Counter), A549
- Type: cell-based, human
- measurement-parameters: Homo sapiens; A549 and MCF-7 cells; read-out: IC50 values for growth arrest (stronger growth inhibitors)
property-label: IC50

Any idea what its IC50 is? The molecule is COc1c(C[C@@H](C)OC(=O)Oc2ccc(O)cc2)c2c3c(C[C@@H](C)OC(=O)c4ccccc4)c(OC)c(=O)c4c(O)cc(OC)c(c5c(OC)cc(O)c(c1=O)c52)c43 [Calphostin C, calphostin C] < 1000 nM

// data source = paper PMC2033742
